# Assay Notes: ATG_TCF_b_cat_CIS: Attagene CIS-FACTORIAL HepG2 Assay for human T-Cell-Factor with beta-catenin (TCF/b-cat) (AID 2282965)
# Assay Context: HepG2 TCF/beta-catenin cis-reporter transcription, actives raise or lower the signal
Activity calls are given as the source filed them. Rule for the calls: active = hit-call score of the fitted dose curve at least 0.9, where 1 is the maximum; inactive = score below 0.9.
Labels: active, inactive

- Molecule: "CCC[CH2][Sn]([Cl])([CH2]CCC)[CH2]CCC"
  Category: "active"
- Molecule: "CN(C)c1ccccc1"
  Category: "inactive"
- Molecule: "Clc1ccc(C(c2ccc(Cl)cc2)C(Cl)Cl)cc1"
  Category: "inactive"
- Molecule: "c1ccc(N=Nc2ccccc2)cc1"
  Category: "inactive"
- Molecule: "Brc1ccc(Oc2ccccc2)cc1"
  Category: "inactive"
- Molecule: "Cc1ccc(N)c(N)c1"
  Category: "inactive"
- Molecule: "CCCCCCCCCCCCCN1CC(C)OC(C)C1 (configuration not stated)"
  Category: "inactive"

---

# Read-out: Plasminogen activator inhibitor-1 (PAI1), SERPINE1 (gene 5054)
# Assay Notes: BSK_hDFCGF_PAI1: BioMAP Diversity Plus: hDFCGF Assay for Plasminogen activator inhibitor-1 (PAI1) Biomarker Activity (AID 2283066)
# Assay Context: primary human foreskin fibroblasts; actives raise or lower the signal
The source made the active and inactive calls. How the source made its calls: active means hit-call score of the fitted dose curve at least 0.9, where 1 is the maximum; inactive means score below 0.9.

- Compound: "Clc1ccc(C(c2ccc(Cl)cc2)C(Cl)(Cl)Cl)cc1"
  AC50: "8.38 µM (active)"
- Compound: "c1ccc2c(c1)oc1ccccc12"
  AC50: "inactive"
- Compound: "Cc1ccc(N)c(N)c1"
  AC50: "inactive"
- Compound: "[Cl-].[Cl-].[Hg+2]"
  AC50: "12.2 µM (active)"
- Compound: "CCCCCCCCCCCCCN1CC(C)OC(C)C1 (stereo unspecified)"
  AC50: "inactive"
- Compound: "Nc1cc(Cl)cc(C(=O)O)c1Cl"
  AC50: "inactive"
- Compound: "Cc1ccc([N+](=O)[O-])cc1"
  AC50: "inactive"
- Compound: "OCCCBr"
  AC50: "inactive"
- Compound: "CCC12COCN1COC2"
  AC50: "inactive"
- Compound: "CC(C)COC(=O)c1ccccc1C(=O)OCC(C)C"
  AC50: "inactive"
- Compound: "Nc1ccc(N=Nc2ccccc2)cc1"
  AC50: "inactive"
- Compound: "CCN(CC)CCO"
  AC50: "inactive"
- Compound: "Cc1ccc(N)cc1"
  AC50: "inactive"
- Compound: "Nc1ccc(Cc2ccc(N)cc2)cc1"
  AC50: "inactive"
- Compound: "Oc1ccc2ccc3cccc4ccc1c2c34"
  AC50: "22.5 µM (active)"
- Compound: "O=Cc1ccco1"
  AC50: "inactive"
- Compound: "CO[C@@H]1[C@H](OC(=O)NC(=O)CCl)CC[C@]2(CO2)[C@H]1[C@@]1(C)O[C@@H]1CC=C(C)C"
  AC50: "inactive"
- Compound: "CN(C)c1ccc(C(=O)c2ccc(N(C)C)cc2)cc1"
  AC50: "inactive"
- Compound: "CC(C)(C)OOC(=O)c1ccccc1"
  AC50: "7.15 µM (active)"
- Compound: "Cc1cccc(N)c1N"
  AC50: "inactive"
- Compound: "c1ccc2c(c1)-c1cccc3cccc-2c13"
  AC50: "inactive"

---

# Read-out: Cytochrome P450 3A4 (Homo sapiens) (UniProt P08684)
# Sequence (P08684 whole entry, looked up): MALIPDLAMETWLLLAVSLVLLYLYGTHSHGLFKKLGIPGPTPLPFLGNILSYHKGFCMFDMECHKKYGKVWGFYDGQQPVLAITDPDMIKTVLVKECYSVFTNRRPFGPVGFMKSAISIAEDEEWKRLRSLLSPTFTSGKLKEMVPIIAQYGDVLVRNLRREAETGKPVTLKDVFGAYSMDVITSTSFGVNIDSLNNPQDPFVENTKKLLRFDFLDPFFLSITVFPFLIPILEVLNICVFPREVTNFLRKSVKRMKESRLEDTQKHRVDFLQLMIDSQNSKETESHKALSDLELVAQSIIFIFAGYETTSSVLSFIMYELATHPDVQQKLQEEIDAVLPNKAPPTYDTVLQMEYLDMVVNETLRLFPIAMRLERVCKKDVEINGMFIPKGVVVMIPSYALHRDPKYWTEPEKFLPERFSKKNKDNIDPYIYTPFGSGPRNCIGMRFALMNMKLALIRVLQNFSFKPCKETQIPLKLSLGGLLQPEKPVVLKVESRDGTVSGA
# Assay Notes: LTEA_HepaRG_CYP3A4: Life Technologies and Expression Analysis (LTEA) Assay for CYP3A4 using HepaRG (AID 2283487)
# Assay Context: mRNA level, 48 h; actives raise or lower the signal
Active and inactive are the calls of the source. How the source made its calls: active means hit-call score of the fitted dose curve at least 0.9, where 1 is the maximum; inactive means score below 0.9.
Possible outcomes: active, inactive

- Compound: "O=C(N[C@H](c1ccccc1)[C@@H]1CN2CCC1CC2)c1c(Cl)ccc(C(F)(F)F)c1Cl"
  Category: "active"
- Compound: "CCOC(=O)[C@]1(c2ccccc2)Oc2ccccc2[C@@H]1N"
  Category: "active"
- Compound: "CCCCCCCCCCCCCN1CC(C)OC(C)C1 (centres undefined)"
  Category: "inactive"
- Compound: "COP(=S)(OC)SCN1C(=O)c2ccccc2C1=O"
  Category: "inactive"
- Compound: "CC(C)(C)OOC(=O)c1ccccc1"
  Category: "inactive"
- Compound: "C[C@]12C=CC3=C4CCC(=O)C=C4CC[C@H]3[C@@H]1CC[C@@H]2O"
  Category: "active"
- Compound: "Cc1ccc(N)c(N)c1"
  Category: "inactive"
- Compound: "Nc1ccc(Oc2ccc(N)cc2)cc1"
  Category: "inactive"
- Compound: "CS(=O)(=O)NC(=O)c1cc(Oc2ccc(C(F)(F)F)cc2Cl)ccc1[N+](=O)[O-]"
  Category: "active"
- Compound: "ClC1=C(Cl)[C@]2(Cl)[C@H]3[C@H]([C@@H]4C=C[C@H]3C4)[C@@]1(Cl)C2(Cl)Cl"
  Category: "active"
- Compound: "Brc1ccc(Oc2ccccc2)cc1"
  Category: "inactive"
- Compound: "CN(C)[C@@H]1C(=O)C(C(N)=O)=C(O)[C@@]2(O)C(=O)C3=C(O)c4c(O)cccc4[C@@](C)(O)[C@H]3C[C@@H]12"
  Category: "inactive"
- Compound: "[Cl-].[Cl-].[Hg+2]"
  Category: "inactive"
- Compound: "O=C(Nc1ccccc1)c1ccccc1I"
  Category: "inactive"

Origin of measurements: PubChem BioAssay (EPA / NIEHS)
